B1: TRAF3IP2 (parent)
chain: APWNYHYHCPGSPDHQVPYGHDYP

# Variants of: B1
# Assay Method Text: protein stability index of a GFP-peptide fusion (GPS, HEK-293T) (PSI 1-6); higher = more stable;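 further: lentivirally expressed fusions sorted by FACS into six bins by GFP to DsRed ratio, PSI derived from sequencing read proportions per bin multiplied by bin number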
# Recorded Conditions: c terminus: a fixed tail appended
Property: protein stability index
Give bare numbers.

Worked set:
- Primary Sequence: "APWNYHYHCPGSPDHQPPYGHDYP [V17P]"
  Data Value: 2.6
- Primary Sequence: "APWNYHYHCPGSPDHQVPYPHDYP [G20P]"
  Data Value: 2.26
- Primary Sequence: "AHWNYHYHCPGSPDHQVPYGHDYP [P2H]"
  Data Value: 2.26
- Primary Sequence: "APWNYHYHCPGSPDHQVPYGHAYP [D22A]"
  Data Value: 1.72
- Primary Sequence: "APWNYRYHCPGSPDHQVPYGHDYP [H6R]"
  Data Value: 2.9

Lab note: each variant below needs its protein stability index filled in.
1. APWNYHYHCPGSPDHQYPYGHDYP [V17Y]
2. APWNYHYHCPCSPDHQVPYGHDYP [G11C]
3. APWNSHYHCPGSPDHQVPYGHDYP [Y5S]
4. APCNYHYHCPGSPDHQVPYGHDYP [W3C]

1. 1.81
2. 2.02
3. 3.47
4. 4.01

Provide the reported protein stability index of each entry below, same order.
1. APWNYHYHCPGDPDHQVPYGHDYP [S12D]
2. APWNYHYHDPGSPDHQVPYGHDYP [C9D]
3. APWNYHYHCPGSPDHQVPYGADYP [H21A]

2.49
2.59
2.22

Respectfully, I request protein stability index for each entry included below.
1. APWNYHYHCPGSTDHQVPYGHDYP [P13T]
2. APWNYHYHCPGSMDHQVPYGHDYP [P13M]
3. APWNYHYHCPGSPSHQVPYGHDYP [D14S]
4. ALWNYHYHCPGSPDHQVPYGHDYP [P2L]
5. APWNYHYHCPGSPDHQGPYGHDYP [V17G]
6. APWNYHYHCPGSPDHQVPYGHDIP [Y23I]
7. AYWNYHYHCPGSPDHQVPYGHDYP [P2Y]
8. APWNYHYHCPGSRDHQVPYGHDYP [P13R]

[2.24, 2.12, 2.26, 1.76, 2.68, 2.3, 1.51, 2.33]

Each variant below has a reported value. Please supply its protein stability index.
1. AFWNYHYHCPGSPDHQVPYGHDYP [P2F]
2. APWNYHYHCPGSPDHQVPYWHDYP [G20W]

1: 1.95; 2: 1.4
